reported-property: IC50 (µM)
# number only, unit µM dropped from output

## Task Identify the measured IC50 of CCc1oc2ccccc2c1C(=O)c1cc(Br)c(O)c(Br)c1 [benzbromarone] for MRP2 (Homo sapiens, UniProt Q92887).
## Result 17.6

----------
Target: OATP1B1 (Homo sapiens)
Construct: host or cells: HEK293
Sequence (Q9Y6L6 whole entry): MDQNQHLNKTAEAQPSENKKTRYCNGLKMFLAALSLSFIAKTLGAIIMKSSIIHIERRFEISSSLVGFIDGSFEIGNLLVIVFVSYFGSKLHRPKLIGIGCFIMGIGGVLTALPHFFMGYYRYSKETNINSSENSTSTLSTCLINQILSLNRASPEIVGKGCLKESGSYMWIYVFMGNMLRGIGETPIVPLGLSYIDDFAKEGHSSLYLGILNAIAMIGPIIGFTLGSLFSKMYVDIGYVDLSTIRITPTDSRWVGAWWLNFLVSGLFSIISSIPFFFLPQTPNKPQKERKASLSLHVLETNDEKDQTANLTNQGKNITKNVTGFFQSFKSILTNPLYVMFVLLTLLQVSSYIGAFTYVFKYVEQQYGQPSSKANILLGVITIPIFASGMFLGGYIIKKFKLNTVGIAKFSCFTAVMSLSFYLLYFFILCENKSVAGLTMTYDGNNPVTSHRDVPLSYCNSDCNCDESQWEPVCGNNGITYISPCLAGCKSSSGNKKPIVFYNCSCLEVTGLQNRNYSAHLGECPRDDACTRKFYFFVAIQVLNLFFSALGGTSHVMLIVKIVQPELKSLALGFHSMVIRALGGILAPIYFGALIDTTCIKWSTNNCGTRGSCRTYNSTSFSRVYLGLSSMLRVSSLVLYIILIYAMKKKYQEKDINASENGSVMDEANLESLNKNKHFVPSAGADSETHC
Experiment: Inhibitory effect of seven drugs on OATP1B1-mediated E217βG uptake
Type: cell-based
Settings: 50 μM or 50 μg/mL; N = 2
Task for the reader: assign each of the following molecules its reported Relative net uptake rate (% of NC), Mean, OATP1B1-mediated E217βG uptake.

## Task Reported Relative net uptake rate (% of NC), Mean, OATP1B1-mediated E217βG uptake for COc1ccnc(C[S+]([O-])c2nc3ccc(OC(F)F)cc3[nH]2)c1OC (centres unmarked) [Pantoprazole, pantoprazole] : what is it?
## Result 115 % of NC

## Task Reported Relative net uptake rate (% of NC), Mean, OATP1B1-mediated E217βG uptake for C[C@@H](O)[C@H]1C(=O)N2C(C(=O)O)=C(S[C@@H]3CN[C@H](C(=O)N(C)C)C3)[C@H](C)[C@H]12 [Meropenem, meropenem] : what is it?
## Result 95.9 % of NC

## Task Reported Relative net uptake rate (% of NC), Mean, OATP1B1-mediated E217βG uptake for CCN1CCN(C(=O)N[C@@H](C(=O)N[C@@H]2C(=O)N3C(C(=O)O)=C(CSc4nnnn4C)CS[C@H]23)c2ccc(O)cc2)C(=O)C1=O [Cefoperzone, cefoperazone] : what is it?
## Result 168 % of NC

## Task Reported Relative net uptake rate (% of NC), Mean, OATP1B1-mediated E217βG uptake for CCCCC[C@H](O)/C=C/[C@H]1[C@H](O)CC(=O)[C@@H]1CCCCCCC(=O)O [Alprostadil, alprostadil] : what is it?
## Result 33.6 % of NC

## Task Reported Relative net uptake rate (% of NC), Mean, OATP1B1-mediated E217βG uptake for O=C(c1cc(Cc2n[nH]c(=O)c3ccccc23)ccc1F)N1CCN(C(=O)C2CC2)CC1 [Olaparib, olaparib] : what is it?
## Result 99.3 % of NC
